Target: human 5-HT1A receptors (Homo sapiens, UniProt P08908)
Construct: expressed in transfected cells; host or cells: CHO cells
Sequence (P08908 1-422): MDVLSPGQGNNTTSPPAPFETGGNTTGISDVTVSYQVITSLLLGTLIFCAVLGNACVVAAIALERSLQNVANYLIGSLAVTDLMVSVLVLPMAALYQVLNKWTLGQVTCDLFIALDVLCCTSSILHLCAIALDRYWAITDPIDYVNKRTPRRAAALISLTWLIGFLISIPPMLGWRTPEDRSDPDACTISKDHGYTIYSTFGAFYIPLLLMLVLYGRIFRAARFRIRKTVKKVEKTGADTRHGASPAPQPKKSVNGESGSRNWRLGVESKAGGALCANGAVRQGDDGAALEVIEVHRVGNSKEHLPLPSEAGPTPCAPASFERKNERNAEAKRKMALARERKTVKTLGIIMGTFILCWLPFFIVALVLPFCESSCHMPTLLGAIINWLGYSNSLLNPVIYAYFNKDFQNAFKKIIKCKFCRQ
Experiment: [3H] 8-OHDPAT displacement from 5-HT1A receptor in transfected CHO cells
Assay type: binding
Conditions: displacement of [3H] 8-OHDPAT, CHO cells stably transfected with human 5-HT1A receptors; read-out: 5-HT1A Receptor Affinity KI
Excerpt: High affinity for the serotonin 5-HT1A receptor was established by testing the claimed compound's ability to displace [^3H] 8-OHDPAT (dipropylamino-tetralin) from the 5-HT1A serotonin receptor following a modification of the procedure of Hall et al., J. Neurochem. 44, 1685 (1985) which utilizes CHO cells stably transfected with human 5-HT1A receptors.
Lab note: cut-off is 100 nM. Strictly less in Ki is 1. Exactly 100 nM or more is 0.

The examples below pair each entry with its known result.
>  <compound>
Fc1ccc2[nH]c(CC3CCN(CC4CCc5ccccc5O4)CC3)cc2c1 (centres unmarked)

>  <classification>
0

$$$$
>  <compound>
Fc1ccc2[nH]cc(C3=CCN(CC4CCc5ccccc5O4)CC3)c2c1 (centres unmarked)

>  <classification>
0

$$$$

Task item: Item C1=C(c2c[nH]c3ccccc23)CCN(CC2CCc3ccccc3O2)C1 (centres unmarked) : Ki beneath 100 nM, strictly?
Reply: 0

Task item: Item COc1cccc2c1OC(CN1CC=C(c3c[nH]c4ccc(F)cc34)CC1)C=C2 (centres unmarked) : Ki beneath 100 nM, strictly?
Reply: 0

Task item: Item COc1cccc2c1OC(CN1CC=C(c3c[nH]c4ccccc34)CC1)CC2 (centres unmarked) : Ki beneath 100 nM, strictly?
Reply: 1

###

target: serotonin transporter (Rattus norvegicus, UniProt P31652); construct: displace ^3H-paroxetine from male rat frontal cortical membranes; from tissue; host or cells: male rat frontal cortex membranes; assay: 3H-paroxetine displacement from rat frontal cortical membranes (serotonin transporter affinity); assay type: binding; details: displacement of 3H-paroxetine, male rat frontal cortical membranes; read-out: 5-HT Transporter Affinity KI
Sequence (P31652 whole entry): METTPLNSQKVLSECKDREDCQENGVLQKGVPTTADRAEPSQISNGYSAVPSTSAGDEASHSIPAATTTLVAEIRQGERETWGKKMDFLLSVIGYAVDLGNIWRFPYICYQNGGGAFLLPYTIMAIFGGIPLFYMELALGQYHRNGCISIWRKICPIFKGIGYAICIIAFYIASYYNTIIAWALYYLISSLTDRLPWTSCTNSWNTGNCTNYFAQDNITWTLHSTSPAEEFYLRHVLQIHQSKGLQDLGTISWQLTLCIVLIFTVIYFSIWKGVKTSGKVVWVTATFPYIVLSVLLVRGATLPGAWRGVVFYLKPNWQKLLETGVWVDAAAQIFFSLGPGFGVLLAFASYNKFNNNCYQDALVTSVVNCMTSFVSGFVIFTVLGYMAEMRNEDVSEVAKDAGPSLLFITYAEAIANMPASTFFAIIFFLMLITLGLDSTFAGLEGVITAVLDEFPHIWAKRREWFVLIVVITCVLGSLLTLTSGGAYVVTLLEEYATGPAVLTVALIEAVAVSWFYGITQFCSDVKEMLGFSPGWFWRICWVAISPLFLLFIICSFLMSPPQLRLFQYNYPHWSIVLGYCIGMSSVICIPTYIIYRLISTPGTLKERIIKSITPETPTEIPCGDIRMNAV
experimental_readout: Ki (nM)
Write the value in nM as a bare number.

>  <compound>
COc1cccc2c1OC(CN1CC=C(c3c[nH]c4ccccc34)CC1)CC2 (centres unmarked) [Example 5]

>  <result_units>
nM

>  <Ki>
10

$$$$

Lab note: next compound to report on.
Task item: For Fc1ccc2[nH]c(CC3CCN(CC4CCc5ccccc5O4)CC3)cc2c1 (centres unmarked) [Example 1] , what is its reported Ki?
Reply: 0.13

# credit: patent US6667322B2
